Some binders, each annotated with its measured IC50 (µg/mL), neutralization of pseudovirus.
Biological target: HIV-1 Env of isolate MGRM-G-006 (subtype G), on pseudovirus (HIV-1)
Test: cell-based or functional assay

Sample records with IC50 (µg/mL), neutralization of pseudovirus:
PGT-135 (antibody, V domains shown) VH: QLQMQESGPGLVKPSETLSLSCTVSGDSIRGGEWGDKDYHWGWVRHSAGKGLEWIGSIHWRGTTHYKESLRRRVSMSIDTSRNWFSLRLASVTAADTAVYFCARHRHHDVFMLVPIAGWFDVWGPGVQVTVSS VL: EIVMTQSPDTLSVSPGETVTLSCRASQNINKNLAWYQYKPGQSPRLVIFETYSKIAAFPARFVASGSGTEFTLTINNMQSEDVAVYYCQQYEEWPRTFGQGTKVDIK: > 50 µg/mL
PGT-130 (antibody, V domains shown) VH: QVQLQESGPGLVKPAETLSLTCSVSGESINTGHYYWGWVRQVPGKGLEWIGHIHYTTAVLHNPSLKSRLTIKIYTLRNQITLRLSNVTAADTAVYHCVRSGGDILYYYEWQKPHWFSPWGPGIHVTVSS VL: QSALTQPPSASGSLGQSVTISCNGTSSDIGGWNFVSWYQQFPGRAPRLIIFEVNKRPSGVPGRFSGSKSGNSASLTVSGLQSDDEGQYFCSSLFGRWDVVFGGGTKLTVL: > 50 µg/mL
PGT-128 (antibody, V domains shown) VH: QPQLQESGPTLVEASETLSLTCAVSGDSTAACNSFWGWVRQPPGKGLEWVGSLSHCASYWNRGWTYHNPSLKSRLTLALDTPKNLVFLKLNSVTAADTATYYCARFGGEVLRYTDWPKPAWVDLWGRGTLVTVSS VL: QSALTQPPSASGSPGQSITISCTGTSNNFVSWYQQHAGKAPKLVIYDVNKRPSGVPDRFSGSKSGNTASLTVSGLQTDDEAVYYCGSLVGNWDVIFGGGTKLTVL: > 50 µg/mL
PGT-123 (antibody, V domains shown) VH: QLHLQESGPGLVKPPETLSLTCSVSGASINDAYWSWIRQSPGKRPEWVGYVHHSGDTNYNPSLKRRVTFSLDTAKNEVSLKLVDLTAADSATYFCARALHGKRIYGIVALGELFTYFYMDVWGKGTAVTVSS VL: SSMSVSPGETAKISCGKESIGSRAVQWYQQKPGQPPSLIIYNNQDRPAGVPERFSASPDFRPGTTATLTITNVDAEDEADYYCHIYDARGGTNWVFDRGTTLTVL: > 50 µg/mL

stdin: Supply measured IC50 (µg/mL), neutralization of pseudovirus of PGT-127 (antibody, V domains shown) VH: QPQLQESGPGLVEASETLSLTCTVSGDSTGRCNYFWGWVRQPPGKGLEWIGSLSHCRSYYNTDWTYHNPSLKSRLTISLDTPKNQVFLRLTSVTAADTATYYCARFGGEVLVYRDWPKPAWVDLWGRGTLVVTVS VL: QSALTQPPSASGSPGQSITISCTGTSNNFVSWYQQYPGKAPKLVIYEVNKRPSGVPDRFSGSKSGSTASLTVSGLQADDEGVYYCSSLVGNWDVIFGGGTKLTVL in your reply.
stdout: > 50 µg/mL

stdin: Supply measured IC50 (µg/mL), neutralization of pseudovirus of PGT-131 (antibody, V domains shown) VH: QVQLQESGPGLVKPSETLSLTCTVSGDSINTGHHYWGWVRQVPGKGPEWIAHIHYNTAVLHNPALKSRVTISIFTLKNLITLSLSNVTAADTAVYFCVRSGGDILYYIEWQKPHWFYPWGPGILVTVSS VL: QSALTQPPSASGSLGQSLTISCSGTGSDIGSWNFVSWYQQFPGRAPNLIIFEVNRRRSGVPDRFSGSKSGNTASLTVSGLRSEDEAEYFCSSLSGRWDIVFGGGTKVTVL in your reply.
stdout: > 50 µg/mL
